These measurements were taken from patent US12297190B2.

- system_name: STING (Homo sapiens, UniProt Q86WV6, G230A/H232R/R293Q/R71H)
- Construct: host or cells: THP-1 and THP-1 Lucia ISG cells
- Sequence (Q86WV6 whole entry R71H/G230A/H232R/R293Q): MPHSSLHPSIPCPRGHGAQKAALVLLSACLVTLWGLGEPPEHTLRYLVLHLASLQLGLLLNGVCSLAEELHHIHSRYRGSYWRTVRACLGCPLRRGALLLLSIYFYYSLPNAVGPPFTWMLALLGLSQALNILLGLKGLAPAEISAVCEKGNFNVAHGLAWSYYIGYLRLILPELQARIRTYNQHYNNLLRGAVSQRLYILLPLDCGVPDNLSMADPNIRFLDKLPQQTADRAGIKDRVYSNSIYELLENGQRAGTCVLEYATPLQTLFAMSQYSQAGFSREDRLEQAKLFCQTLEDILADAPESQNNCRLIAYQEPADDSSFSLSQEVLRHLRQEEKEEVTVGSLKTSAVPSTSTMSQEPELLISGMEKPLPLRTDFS
- experimental_details: Interferon-β induction: THP-1 Lucia ISG reporter cell line
- Type: cell-based
- conditions: THP-1 Lucia ISG cells, 24 hours incubation, luciferase reporter; read-out: THP-1 Lucia ISG Cells IFN-β EC50
Recorded measurements of EC50, one per entry
observation_type: EC50

[
  {
    "molecule": "CCn1nc(C)cc1-c1nc(-c2nc(C(N)=O)cc3c2cnn3C)n(CCCN)n1",
    "result_value": "> 13.3 µM"
  },
  {
    "molecule": "CCn1nc(C)cc1-c1nnc(-c2cc(C(N)=O)cc3c2cnn3CC[C@H](C)C2CCNCC2)[nH]1 (racemic)",
    "result_value": "> 100 µM"
  },
  {
    "molecule": "Cc1cc(-c2n[nH]c(-c3cc(C(N)=O)cc4c3cnn4C(F)F)n2)n(CCC(=O)O)n1",
    "result_value": "> 100 µM"
  },
  {
    "molecule": "CCn1nc(C)c(Cl)c1-c1nc(-c2nc(C(N)=O)cc3c2cnn3C)c(CN)s1",
    "result_value": "> 10 µM"
  },
  {
    "molecule": "CCn1nc(C)cc1-c1n[nH]c(-c2cc(C(N)=O)cc3c2cnn3CCCC(=O)O)n1",
    "result_value": "> 100 µM"
  },
  {
    "molecule": "CCn1nc(CO)cc1-c1n[nH]c(-c2nc(C(N)=O)cc3c2cnn3C)n1",
    "result_value": "> 33.3 µM"
  },
  {
    "molecule": "CCn1nc(C)cc1-c1n[nH]c(-c2cc(C(N)=O)cc3c2cnn3CCN2CCOC(C)C2)n1 (centres unmarked)",
    "result_value": "> 33.3 µM"
  },
  {
    "molecule": "CCn1nc(C)cc1-c1nnc(-c2cc(C(N)=O)cc3c2cnn3CCN2CCC(C#N)CC2)[nH]1",
    "result_value": "> 100 µM"
  }
]
